All values here come from the supplement of paper PMC11908140.

B1: library; numbered along this chain (parent)
chain: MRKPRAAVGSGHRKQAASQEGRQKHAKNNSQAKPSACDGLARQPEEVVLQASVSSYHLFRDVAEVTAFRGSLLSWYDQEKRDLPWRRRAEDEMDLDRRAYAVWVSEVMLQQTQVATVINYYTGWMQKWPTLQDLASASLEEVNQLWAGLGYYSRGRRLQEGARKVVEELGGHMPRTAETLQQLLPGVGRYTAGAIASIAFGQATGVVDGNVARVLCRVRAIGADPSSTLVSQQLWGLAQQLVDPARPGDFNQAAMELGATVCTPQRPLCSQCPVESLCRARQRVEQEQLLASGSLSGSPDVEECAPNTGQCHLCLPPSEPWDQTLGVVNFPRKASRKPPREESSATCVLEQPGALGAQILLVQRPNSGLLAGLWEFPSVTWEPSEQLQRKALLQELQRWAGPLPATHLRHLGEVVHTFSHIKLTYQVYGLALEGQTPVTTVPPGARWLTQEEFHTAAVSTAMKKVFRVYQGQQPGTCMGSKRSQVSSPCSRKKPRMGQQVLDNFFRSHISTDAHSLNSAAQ

Variants of: B1
Procedure summary: 8OG:A repair function score (normalized; synonymous = 0, nonsense = -1) (normalized log-likelihood score); higher = more repair activity (WT-like);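 also: cells sorted at 72 h after reporter transfection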
Measurement parameters: with 8OG:A DNA repair reporter (GFP) in HEK-293 MUTYH KO cells
Bucketed by reported 8OG:A repair function score, buckets being low: < -0.1; middle: ≥ -0.1 and < -0.007; high: ≥ -0.007

Check out these entries, answers already filled in.
# Changes, Group label
measured = [
    ("G479Y", "high"),
    ("L387Q", "high"),
    ("V104C", "low"),
]

Sort "Q181K" into one of the categories. middle

Sort "E285S" into one of the categories. high

Sort "L369F" into one of the categories. high

Sort "G293N" into one of the categories. middle

Sort "L516Y" into one of the categories. high

Sort "S480F" into one of the categories. middle

Sort "D512E" into one of the categories. middle

Sort "P383S" into one of the categories. middle

Sort "R279Q" into one of the categories. low

Sort "T455Y" into one of the categories. low

Sort "P273R" into one of the categories. low

Sort "A101R" into one of the categories. middle

Sort "G70E" into one of the categories. middle

Sort "A212N" into one of the categories. low

Sort "R495I" into one of the categories. middle
